Ref: PubChem BioAssay (NCATS)

- assay_remarks: Stat Signaling Pathway (AID 446);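 further: ME-180 cervical cancer cells given 40 pM IL-6 alongside compound; SIE-controlled beta-lactamase reporter measured as 460/530 nm FRET emission ratio; on the % scale 0 is the no-effect control and ±100 the full control effect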
- test_conditions: ME-180 (cervical carcinoma) SIE beta-lactamase reporter, IL-6 stimulated, 5 h; at 7.69 µM (top of the series) unless noted
Results filed as inconclusive are left out. The source made the active and inactive calls. The call rests on the fitted dose curve; in most records, active means well fitted curve in either direction with a large enough effect (not every such curve was filed as active); inconclusive means small, poorly fitted or top-dose-only effect, or another doubt; inactive means flat fitted curve, though single readings scatter.
Kindly state activity, negative = inhibition for each of the entries shown.

Check out these entries, answers already filled in.
molecule	activity, negative = inhibition
S=C1SCN(C2CCCCCCCCCCC2)CN1C1CCCCCCCCCCC1	-6.56% (inactive)
O=C(O)CCC(=O)c1ccc[nH]1	3.5% (inactive)
O=C(O)CC12C[C@H]3C[C@@H](CC(O)(C3)C1)C2	-1.43% (inactive)

Would you mind listing activity, negative = inhibition for each of the following compounds?
1. O[C@@H](c1cc([C@@]23C[C@H]4CC[C@@H]2C[C@H](C4)C3)nc2c(Cl)cc(Cl)cc12)[C@@H]1CCCCN1
2. O=C(O)c1cc(=O)[nH]c(=S)[nH]1
3. CN(C)CCCn1c2ccccc2c2cnccc21
4. CN(C)Cc1ccc(C(C)(C)C)cc1-c1cc(C(C)(C)C)ccc1CN(C)C
5. Nc1cc(C(=O)O)[nH]c(=O)n1

Reply:
1: 0.88% (inactive); 2: 6.7% (inactive); 3: 13.9% (inactive); 4: -4.38% (inactive); 5: 13.8% (inactive)
